Molecular target: Mu-type opioid receptor (Homo sapiens, UniProt P35372)
Sequence (P35372 whole entry): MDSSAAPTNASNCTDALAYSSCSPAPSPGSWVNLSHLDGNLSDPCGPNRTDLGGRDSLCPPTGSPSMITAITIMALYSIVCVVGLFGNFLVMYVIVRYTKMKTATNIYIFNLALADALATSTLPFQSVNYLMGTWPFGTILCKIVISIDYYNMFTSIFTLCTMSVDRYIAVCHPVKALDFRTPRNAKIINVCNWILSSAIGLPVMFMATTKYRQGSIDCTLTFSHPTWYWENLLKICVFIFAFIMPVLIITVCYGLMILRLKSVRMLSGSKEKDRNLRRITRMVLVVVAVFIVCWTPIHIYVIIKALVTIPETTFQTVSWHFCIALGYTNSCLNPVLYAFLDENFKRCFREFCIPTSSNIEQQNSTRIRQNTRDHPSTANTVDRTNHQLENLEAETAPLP
Test: Displacement of [3H]DAMGO from human recombinant mu opioid receptor expressed in CHO cell membranes after 60 mins by scintillation counting method
pKi: −log10 of the molar value.
quantity: pKi

{"smiles.data": "CN1C(=O)CCC2=C1[C@@H]1Oc3c(O)ccc4c3[C@@]13CCN(C)[C@H](C4)[C@]3(O)C2", "recorded.result": 8.91}
{"smiles.data": "O=C1[C@H](CCO)CC2=C([C@@H]3Oc4c(O)ccc5c4[C@@]34CCN(CC3CC3)[C@H](C5)[C@]4(O)C2)N1Cc1ccccc1", "recorded.result": 9.37}
{"smiles.data": "CN1C(=O)[C@@H](CCO)CC2=C1[C@@H]1Oc3c(O)ccc4c3[C@@]13CCN(C)[C@H](C4)[C@]3(O)C2", "recorded.result": 7.89}
{"smiles.data": "C[C@H]1CC2=C([C@@H]3Oc4c(O)ccc5c4[C@@]34CCN(CC3CC3)[C@H](C5)[C@]4(O)C2)N(Cc2ccccc2)C1=O", "recorded.result": 9.38}
